Test: Phase 2 metabolic stability in human liver microsomes assessed as compound remaining at 10 uM measured for 1 hr by LC-MS/MS analysis
Assay type: ADME
Conditions: read-out: Stability
experimental-endpoint: remaining at 1 h, 10 µM

Query: State the recorded remaining at 1 h, 10 µM for this entry: `O=C(O)c1cccc(-c2cccc(CCS)c2C(=O)O)c1`
Result: > 90%

----------
Test: Metabolic stability in Sprague-Dawley rat plasma assessed as compound remaining at 10 uM after 1 hr by LC-MS/MS analysis
Format: ADME, cell-free
Settings: read-out: Stability
experimental-endpoint: remaining at 1 h, 10 µM

Query: State the recorded remaining at 1 h, 10 µM for this entry: `O=C(O)c1cccc(-c2cccc(CCS)c2C(=O)O)c1`
Result: 64.5%
